molecular target: HIS-TGFβR1 T204D (Homo sapiens (Human), UniProt P36897, T204D); assay: HTRF probe-displacement assay, HIS-TGFβR1 T204D; settings: 1 hour at room temperature
Sequence (P36897 34-503 T204D): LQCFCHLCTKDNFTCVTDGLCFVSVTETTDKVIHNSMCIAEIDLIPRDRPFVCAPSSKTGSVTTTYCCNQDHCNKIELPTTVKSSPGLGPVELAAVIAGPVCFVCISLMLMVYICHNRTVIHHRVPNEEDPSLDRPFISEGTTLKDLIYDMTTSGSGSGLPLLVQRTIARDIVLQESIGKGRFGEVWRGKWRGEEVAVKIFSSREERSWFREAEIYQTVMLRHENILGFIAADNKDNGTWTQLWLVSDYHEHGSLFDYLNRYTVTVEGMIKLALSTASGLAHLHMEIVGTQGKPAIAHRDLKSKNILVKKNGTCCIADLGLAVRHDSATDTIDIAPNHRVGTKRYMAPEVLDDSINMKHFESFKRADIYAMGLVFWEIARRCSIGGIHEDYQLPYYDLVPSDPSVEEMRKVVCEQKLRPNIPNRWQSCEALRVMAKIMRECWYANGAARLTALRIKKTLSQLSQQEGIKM
MEASURE_NAME: IC50 (nM)

Consider the worked cases shown below.
MOLECULE | TESTED_SYSTEM | OUTPUT_UNIT | IC50
Cc1cccc(-c2nc(Nc3ccncc3)c3cc(C(=O)Nc4ccccc4)cn3n2)n1 | HIS-TGFβR1 T204D (Homo sapiens (Human), UniProt P36897, T204D) | nM | 7.7
Cc1cccc(-c2nc(Nc3ccncc3F)c3ccc(C(=O)O)n3n2)n1 | HIS-TGFβR1 T204D (Homo sapiens (Human), UniProt P36897, T204D) | nM | 35
CC(C)(O)CNCc1ccn2nc(-c3ccccn3)nc(Nc3ccncc3F)c12 | HIS-TGFβR1 T204D (Homo sapiens (Human), UniProt P36897, T204D) | nM | 1.6
COc1cccc(-c2nc(Nc3ccncc3NC(=O)CN3CCOCC3)c3cccn3n2)n1 | HIS-TGFβR1 T204D (Homo sapiens (Human), UniProt P36897, T204D) | nM | 3000

[1] Oc1cccc(N2CCN(Cc3ccn4nc(-c5ccccn5)nc(Nc5ccncc5F)c34)CC2)c1
[2] Fc1cnccc1Nc1nc(-c2ccccn2)nn2ccc(CNCCc3ccccn3)c12
Query :: Of the two listed items, 1 and 2 , which carries the larger IC50 figure? Refer to your chosen item by its label in the answer.
Result :: 2
(2: 2.5 nM, 1: 0.47 nM)

[P] COc1cccc(-c2nc(Nc3ccncc3F)c3c(CCN4CCC(N)CC4)ccn3n2)n1
[Q] COCCC(=O)Nc1cc(Nc2nc(-c3cccc(C(F)(F)F)n3)nn3cccc23)ccn1
Query :: Given the listed items, does P or Q have the lesser reported IC50? Refer to your chosen item by its label in the answer.
Result :: Q
